Attribute: cytotoxicity at 70.5 h
# EXPERIMENTAL DETAILS: Human HepG2 cell viability assay in 384 well format
# Type: toxicity, cell-based
# Set-up: dose 125 nL, time 70.5 hour; concentration not given beside the values
# COND: HepG2 cells, read-out: Inhibition
Numbers only; they are read as %.

Query: Please indicate cytotoxicity at 70.5 h recorded for CC(Cn1cccn1)NC(=O)c1cc(C2CC2)nc2c1cnn2C (configuration not stated)
Result: -9.86

Query: Please indicate cytotoxicity at 70.5 h recorded for CCc1cnc(CN(C(C)=O)C2CCN(CC(=O)N3CCCC3)C2)o1 (configuration not stated)
Result: -4.28

Query: Please indicate cytotoxicity at 70.5 h recorded for "Cc1ccc(C)c(Sc2nccn(C)c2=O)c1"
Result: -10.6

Query: Please indicate cytotoxicity at 70.5 h recorded for Cc1nc2c(s1)C(N(C)C(=O)NCCCC(C)(C)CO)CCC2 (configuration not stated)
Result: -6.11

Query: Please indicate cytotoxicity at 70.5 h recorded for "NC(=O)CN1CCCN(C(=O)Cc2ccc3c(c2)OCCO3)CC1"
Result: -11

Query: Please indicate cytotoxicity at 70.5 h recorded for "COc1cc(CO)ccc1OCc1nc(C2CC2)no1"
Result: -7.52

Query: Please indicate cytotoxicity at 70.5 h recorded for "CS(=O)(=O)CCNC(=O)N1CC2(CCCC2)c2ccccc21"
Result: 0.304

Query: Please indicate cytotoxicity at 70.5 h recorded for "O=C(C1CCOCC1)N1CCO[C@H]2[C@H](Oc3cccnc3)CC[C@@H]21"
Result: -3.29

New cases:
Query: Please indicate cytotoxicity at 70.5 h recorded for "COc1ncccc1NC(=O)C1CCOCC1"
Result: 22.9

Query: Please indicate cytotoxicity at 70.5 h recorded for CC(NC(=O)NCCCN1CCCC1=O)c1nncn1C (configuration not stated)
Result: -9.31

Query: Please indicate cytotoxicity at 70.5 h recorded for CCc1c(C(=O)NCC2CCS(=O)(=O)C2)cnn1-c1ccc(C)cc1 (configuration not stated)
Result: -20

Query: Please indicate cytotoxicity at 70.5 h recorded for "CCc1c(C)nc(C)nc1N1CCC(NCCSc2nnnn2C)CC1"
Result: -6.49

Query: Please indicate cytotoxicity at 70.5 h recorded for COCC(=O)N1CCC2(CCCN(Cc3cc(OC)ccc3F)C2)C1 (configuration not stated)
Result: -7.78

Query: Please indicate cytotoxicity at 70.5 h recorded for "CCS(=O)(=O)N1CCc2c(cccc2NCc2ncc[nH]2)C1"
Result: -10

Query: Please indicate cytotoxicity at 70.5 h recorded for "CC(C)c1nnc2n1CCN(Cc1nc3c(F)cccc3[nH]1)C2"
Result: -5.06

Query: Please indicate cytotoxicity at 70.5 h recorded for "COc1ccc2[nH]cc(C(=O)N3C[C@@H](O)[C@H](N4CCOCC4)C3)c2c1"
Result: -9.96

Query: Please indicate cytotoxicity at 70.5 h recorded for "Cc1ccn(-c2ccc(N3CCN(Cc4ccccn4)CC3)nn2)n1"
Result: -7.77

Query: Please indicate cytotoxicity at 70.5 h recorded for CC(C)COCC(NC(=O)c1cc[nH]n1)c1ccco1 (configuration not stated)
Result: 4.11

Query: Please indicate cytotoxicity at 70.5 h recorded for "CC(C)CNC(=O)CN(C)S(C)(=O)=O"
Result: 0.607

Query: Please indicate cytotoxicity at 70.5 h recorded for "CC(=O)N1CC[C@@H](N2CCN(C)CC2)[C@@H]1Cc1ccccc1"
Result: -2.96

Query: Please indicate cytotoxicity at 70.5 h recorded for "c1cnc(N2CCO[C@H]3[C@H](OCc4cccnc4)CC[C@@H]32)nc1"
Result: 13.6

Query: Please indicate cytotoxicity at 70.5 h recorded for Cc1nc(C)n(CC2CCCN2Cc2nc3ccccc3s2)n1 (configuration not stated)
Result: -5.56

Query: Please indicate cytotoxicity at 70.5 h recorded for "CCN(Cc1ccccc1)S(=O)(=O)C1CCS(=O)(=O)CC1"
Result: -10.9
